B1: EPB41L3 (parent)
chain: SDYISEFRFAPNHTKELEDKVIEL

variants of: B1; assay: protein stability index of a GFP-peptide fusion (GPS, HEK-293T) (PSI 1-6); higher = more stable; conditions: c terminus: a fixed tail appended;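 note: lentivirally expressed fusions sorted by FACS into six bins by GFP to DsRed ratio, PSI derived from sequencing read proportions per bin multiplied by bin number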
Readout Name: protein stability index

INSERT INTO results (variant_annotation, readout_name, recorded_result) VALUES
  ('R8S', 'protein stability index', 4.3),
  ('S5R', 'protein stability index', 2.62),
  ('D19I', 'protein stability index', 2.71),
  ('K20Y', 'protein stability index', 1.87),
  ('L17R', 'protein stability index', 1.27),
  ('E6Q', 'protein stability index', 2.02),
  ('E6D', 'protein stability index', 1.93),
  ('N12H', 'protein stability index', 1.95),
  ('Y3M', 'protein stability index', 2.29),
  ('S5T', 'protein stability index', 2.18),
  ('N12D', 'protein stability index', 3.9);
